- assay: Identifying Small Molecule Inhibitors of Pancreatic Cancer Stem Cells (Panc1, Adherent) (AID 1259362)
- measurement.conditions: viability; series mostly up to 46.1 µM
Records with an inconclusive call do not appear. Activity calls are given as the source filed them. Calls come from the whole dose curve; as a rule, active = well fitted cell-killing curve with a large enough effect; inconclusive = small, poorly fitted or top-dose-only effect, or effect the other way, or another doubt; inactive = no such curve, though single readings can be large or run the other way.
Labels: active, inactive

[[record]]
test_smiles = "Cc1nc(Nc2ncc(C(=O)Nc3c(C)cccc3Cl)s2)cc(N2CCN(CCO)CC2)n1"
class_label = "active"

[[record]]
test_smiles = "Cc1ccc(NC(=O)c2ccc(CN3CCN(C)CC3)cc2)cc1Nc1nccc(-c2cccnc2)n1"
class_label = "inactive"

[[record]]
test_smiles = "CCN(CC)CCOc1ccc(Nc2ncc3cc(-c4c(Cl)cccc4Cl)c(=O)n(C)c3n2)cc1"
class_label = "active"

[[record]]
test_smiles = "CC(C)c1ccc2c(c1)c(SC(C)(C)C)c(CC(C)(C)C(=O)O)n2Cc1ccc(Cl)cc1"
class_label = "inactive"


* * *

- Tested on: N140
- assay: qHTS profiling for inhibitors of Plasmodium falciparum proliferation (AID 504749); note: nearly all actives have a fitted effect of over 60% in size
- measurement.conditions: P. falciparum in erythrocytes, SYBR Green DNA, 72 h; series mostly up to 28.7 µM
Results filed as inconclusive are left out. Calls of active or inactive are those of the source. The call rests on the fitted dose curve; in most records, active means well fitted inhibition curve with a large enough effect; inconclusive means small, poorly fitted or top-dose-only effect; inactive means flat fitted curve, though single readings scatter.
Outcome codes: Yes for active, No for inactive

[[record]]
compound = "CCCc1cc(=O)[nH]c(=S)[nH]1"
class_label = "No"

[[record]]
compound = "CN(C)C(=O)COC(=O)Cc1ccc(OC(=O)c2ccc(N=C(N)N)cc2)cc1"
class_label = "No"

[[record]]
compound = "Clc1ccc(C(Cn2ccnc2)OCc2ccsc2Cl)c(Cl)c1 (stereo not drawn)"
class_label = "Yes"

[[record]]
compound = "C=CCc1cc(OC)c(O)c(C(=O)NCCO)c1"
class_label = "No"

[[record]]
compound = "O=C(CS(=O)Cc1ccco1)NCC=CCOc1cc(CN2CCCCC2)ccn1 (stereo not drawn)"
class_label = "No"

[[record]]
compound = "COc1cc(OC)c(C(=O)CCCN2CCCC2)c(OC)c1"
class_label = "No"

[[record]]
compound = "CCCCCCCCCCCCCCCCCCCCCCO"
class_label = "No"

[[record]]
compound = "Oc1ccc(OCc2ccccc2)cc1"
class_label = "No"

[[record]]
compound = "CCCOc1ccc2nc(NC(=O)OC)[nH]c2c1"
class_label = "No"

[[record]]
compound = "CCC1=C(C)CN(C(=O)NCCc2ccc(S(=O)(=O)NC(=O)NC3CCC(C)CC3)cc2)C1=O (stereo not drawn)"
class_label = "No"

[[record]]
compound = "CCCCN(CCCC)CCC(O)c1cc2c(Cl)cc(Cl)cc2c2cc(C(F)(F)F)ccc12 (stereo not drawn)"
class_label = "Yes"

[[record]]
compound = "Cc1cc(=O)c2c(O)c3c(O)cc(=O)c4c3c3c(cc(O)c1c23)C(C)(C)C=4O"
class_label = "Yes"

[[record]]
compound = "CC(C)c1ccc2oc3nc(N)c(C(=O)O)cc3c(=O)c2c1"
class_label = "No"


* * *

- assay: Quantitative High-Throughput drug screen in 47 multiple myeloma cell lines against the NCATS MIPE library collection: Karpas25_ECACC cell viability assay (AID 1918968; note: nearly all actives have a fitted effect of over 35% in size)
- measurement.conditions: Karpas25 myeloma viability, CellTiter-Glo ATP, 48 h; series mostly up to 45.8 µM
- Description: PI: Beverly A. Mock Ph.D. Laboratory of Cancer Biology and Genetics, Center for Cancer Research, National Cancer Institute, National Institute of Health, Bethesda, Maryland […] 5; Detector; 425V; Luminescence; Viewlux PerkinElmer. […] 1. […] Briefly, the corresponding myeloma cell lines were screened in 1,536-well plates with 500 cells, 5-uL per well for inhibition of cell viability (assessed by measuring ATP levels with CellTiterGlo). […]
Results filed as inconclusive are left out. Activity calls are given as the source filed them. Calls follow the shape of the dose curve; as a rule, active = well fitted cell-killing curve with a large enough effect; inconclusive = small, poorly fitted or top-dose-only effect, or effect the other way; inactive = no such curve, though single readings can be large or run the other way.
Outcome codes: true for active, false for inactive

[[record]]
compound = "c1ccc2[nH]c(-c3cscn3)nc2c1"
class_label = "false"

[[record]]
compound = "CCCCc1ccc2nc(NC(=O)OC)[nH]c2c1"
class_label = "true"

[[record]]
compound = "COc1ccc2cc([C@H](C)C(=O)O)ccc2c1"
class_label = "true"

[[record]]
compound = "Cc1cc(=O)c2c(O)c3c(O)cc(=O)c4c3c3c(cc(O)c1c23)C(C)(C)C=4O"
class_label = "true"

[[record]]
compound = "COc1cc2c(cc1OC)C1CC(=O)C(CC(C)C)CN1CC2 (stereo unspecified)"
class_label = "false"

[[record]]
compound = "Cc1cc(C2CCCCC2)n(O)c(=O)c1"
class_label = "true"


Data credit: PubChem BioAssay (NCATS)
